Source: the supplement of paper PMC10567573

A collection of variants and their measured protein stability index
B1: ADAMTS4 (parent)
chain: SFRKFRYGYNNVVTIPAGATHILV

variants of: B1; assay: protein stability index of a GFP-peptide fusion (GPS, HEK-293T) (PSI 1-6); higher = more stable; settings: c terminus: a fixed tail appended;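 further: lentivirally expressed fusions sorted by FACS into six bins by GFP to DsRed ratio, PSI derived from sequencing read proportions per bin multiplied by bin number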
The reply should be a number, written without any unit.

Can you share its protein stability index? I mean this variant: I22N 1.83

Moving on to R3C 3.97

Consider the record given below.
Can you share its protein stability index? I mean this variant: S1L 2.08
